What follows is a record of pIC50 for Hsp90α (Homo sapiens).
pIC50: −log10 of the molar value.

# COMPOUND, OPERATOR_SYMBOL, pIC50
records = [
    ("CC(C)c1cc(C(=O)N2CCc3cc(NC(=O)CCCCCCCC(=O)NO)ccc32)c(O)cc1O [Compound 6]", "=", 7.28),
    ("CC(C)c1cc(C(=O)N2CCc3cc(NC(=O)CCC(=O)NO)ccc32)c(O)cc1O [Compound 1]", "=", 7.31),
    ("CC(C)c1cc(C(=O)N2CCc3cc(NC(=O)CCCCCCCCC(=O)NO)ccc32)c(O)cc1O [Compound 7]", "=", 7.23),
    ("O=C(CCCCCCC(=O)Nc1ccccc1)NO [SAHA, reference compound]", "<", 6.00),
]

// provenance: paper PMC8305912
